The measurements presented in this section are drawn from patent US20210283139A1.

target: Brd2 (Homo sapiens); assay: Concentration-dependent BET degradation, immunoblot, HEK293 cells; assay type: cell-based; set-up: endogenous in cells; host or cells: HEK293; settings: HEK293, Brd2, 6 h treatment, 1 nM-10 μM; read-out: Dmax (%) maximum degradation observed
Sequence (P25440 whole entry): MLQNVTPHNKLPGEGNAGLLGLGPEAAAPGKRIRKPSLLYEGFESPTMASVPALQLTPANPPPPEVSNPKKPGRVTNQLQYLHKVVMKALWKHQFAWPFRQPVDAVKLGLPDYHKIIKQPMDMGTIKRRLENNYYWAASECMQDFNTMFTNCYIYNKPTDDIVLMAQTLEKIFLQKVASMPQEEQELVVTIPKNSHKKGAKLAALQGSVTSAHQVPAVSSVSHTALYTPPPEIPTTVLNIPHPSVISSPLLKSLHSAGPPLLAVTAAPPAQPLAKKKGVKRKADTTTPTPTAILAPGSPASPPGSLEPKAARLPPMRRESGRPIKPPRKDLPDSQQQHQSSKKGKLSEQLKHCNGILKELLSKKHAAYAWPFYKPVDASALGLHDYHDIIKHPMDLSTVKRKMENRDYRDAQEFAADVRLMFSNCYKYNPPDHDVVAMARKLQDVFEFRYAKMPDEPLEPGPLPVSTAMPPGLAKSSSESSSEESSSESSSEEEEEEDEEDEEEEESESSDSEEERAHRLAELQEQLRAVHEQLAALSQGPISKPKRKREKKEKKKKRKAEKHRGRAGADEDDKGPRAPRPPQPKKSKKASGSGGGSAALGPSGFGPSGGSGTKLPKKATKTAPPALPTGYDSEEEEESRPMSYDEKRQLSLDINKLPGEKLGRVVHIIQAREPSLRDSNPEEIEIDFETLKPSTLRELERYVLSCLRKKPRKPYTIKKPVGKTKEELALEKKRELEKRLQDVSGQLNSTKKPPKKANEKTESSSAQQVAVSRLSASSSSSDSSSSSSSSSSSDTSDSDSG
This section presents compounds with their documented Dmax values.
experimental readout: Dmax

{"compound": "CCCC(NC(=O)/C(C#N)=C/c1cccc(Br)n1)c1ccc(OCCOCCOCCOCCOCCOCCOCCNC(=O)c2ccc(-c3ccc4c(c3)[C@H](Nc3ccc(Cl)cc3)C[C@H](C)N4C(C)=O)cc2)cc1 (some centres unmarked) [Example 05IB6]", "assay target": "Brd2 (Homo sapiens)", "data value": "26 to 50%"}
{"compound": "CCCC(NC(=O)/C(C#N)=C/c1nccs1)c1ccc(OCCOCCOCCOCCOCCOCCOCCNC(=O)c2ccc(-c3ccc4c(c3)[C@H](Nc3ccc(Cl)cc3)C[C@H](C)N4C(C)=O)cc2)cc1 (some centres unmarked) [Example 05IB9]", "assay target": "Brd2 (Homo sapiens)", "data value": "51 to 70%"}
{"compound": "CCCC(NC(=O)/C(C#N)=C/c1cccc(Br)n1)c1ccc(OCC=NOCC(=O)NCCOCCNC(=O)c2ccc3c(c2)[C@H](Nc2ccc(Cl)cc2)C[C@H](C)N3C(C)=O)cc1 (some centres unmarked) [Example 05IB1]", "assay target": "Brd2 (Homo sapiens)", "data value": "51 to 70%"}
{"compound": "CCCC(NC(=O)/C=C/c1cccc(Br)n1)c1ccc(OCCOCCOCCOCCOCCOCCOCCNC(=O)c2ccc(-c3ccc4c(c3)[C@H](Nc3ccc(Cl)cc3)C[C@H](C)N4C(C)=O)cc2)cc1 (some centres unmarked) [Example 05IB11]", "assay target": "Brd2 (Homo sapiens)", "data value": "≤ 25%"}
{"compound": "CCCC(NC(=O)/C(C#N)=C/c1cccc(Br)n1)c1ccc(OCC=NOCC(=O)NCCOCCOCCOCCNC(=O)c2ccc3c(c2)[C@H](Nc2ccc(Cl)cc2)C[C@H](C)N3C(C)=O)cc1 (some centres unmarked) [Example 05IB2]", "assay target": "Brd2 (Homo sapiens)", "data value": "51 to 70%"}
{"compound": "CCCC(NC(=O)C(C#N)Cc1cccc(Br)n1)c1ccc(OCCOCCOCCOCCOCCOCCOCCNC(=O)c2ccc(-c3ccc4c(c3)[C@H](Nc3ccc(Cl)cc3)C[C@H](C)N4C(C)=O)cc2)cc1 (some centres unmarked) [Example 05IB12]", "assay target": "Brd2 (Homo sapiens)", "data value": "≤ 25%"}
{"compound": "CCCC(NC(=O)/C(C#N)=C/c1nc(Cl)ccc1Cl)c1ccc(OCCOCCOCCOCCOCCOCCOCCNC(=O)c2ccc(-c3ccc4c(c3)[C@H](Nc3ccc(Cl)cc3)C[C@H](C)N4C(C)=O)cc2)cc1 (some centres unmarked) [Example 05IB10]", "assay target": "Brd2 (Homo sapiens)", "data value": "51 to 70%"}
{"compound": "CCCC(NC(=O)/C(C#N)=C/c1cccc(Br)n1)c1ccc(OCC=NOCC(=O)NCCOCCOCCOCCOCCOCCNC(=O)c2ccc3c(c2)[C@H](Nc2ccc(Cl)cc2)C[C@H](C)N3C(C)=O)cc1 (some centres unmarked) [Example 05IB3]", "assay target": "Brd2 (Homo sapiens)", "data value": "≥ 71%"}

* * *

target: Brd4 (S) (Homo sapiens, UniProt O60885); construct: endogenous in cells; host or cells: HEK293, HeLa; assay: Concentration-dependent BET degradation, immunoblot, HEK293 cells; assay type: cell-based; details: 6 h treatment, 1 nM-10 μM, read-out: Dmax (%) maximum degradation observed
experimental readout: Dmax

{"compound": "CCCC(NC(=O)/C(C#N)=C/c1cccc(Br)n1)c1ccc(OCC=NOCC(=O)NCCOCCOCCOCCNC(=O)c2ccc3c(c2)[C@H](Nc2ccc(Cl)cc2)C[C@H](C)N3C(C)=O)cc1 (some centres unmarked)", "experimental readout": "Dmax", "data value": "≥ 71%"}
{"compound": "CCCC(NC(=O)/C(C#N)=C/c1nc(Cl)ccc1Cl)c1ccc(OCCOCCOCCOCCOCCOCCOCCNC(=O)c2ccc(-c3ccc4c(c3)[C@H](Nc3ccc(Cl)cc3)C[C@H](C)N4C(C)=O)cc2)cc1 (some centres unmarked)", "experimental readout": "Dmax", "data value": "≥ 71%"}
{"compound": "CCCC(NC(=O)C(C#N)Cc1cccc(Br)n1)c1ccc(OCCOCCOCCOCCOCCOCCOCCNC(=O)c2ccc(-c3ccc4c(c3)[C@H](Nc3ccc(Cl)cc3)C[C@H](C)N4C(C)=O)cc2)cc1 (some centres unmarked)", "experimental readout": "Dmax", "data value": "26 to 50%"}
{"compound": "CCCC(NC(=O)/C(C#N)=C/c1cccc(Br)n1)c1ccc(OCC=NOCC(=O)NCCOCCNC(=O)c2ccc3c(c2)[C@H](Nc2ccc(Cl)cc2)C[C@H](C)N3C(C)=O)cc1 (some centres unmarked)", "experimental readout": "Dmax", "data value": "≥ 71%"}
{"compound": "CCCC(NC(=O)/C(C#N)=C/c1cccc(Br)n1)c1ccc(OCCOCCOCCOCCOCCOCCOCCNC(=O)c2ccc(-c3ccc4c(c3)[C@H](Nc3ccc(Cl)cc3)C[C@H](C)N4C(C)=O)cc2)cc1 (some centres unmarked)", "experimental readout": "Dmax", "data value": "≥ 71%"}

* * *

molecular target: Brd4 (S) (Homo sapiens, UniProt O60885); construct: endogenous in cells; host or cells: HEK293, HeLa; experiment: Time-dependent BET degradation, immunoblot, HEK293 cells; assay type: cell-based; parameters: dose or concentration left out as unconfirmed; conditions: timecourse 0-8 h

{"compound": "CCCC(NC(=O)/C(C#N)=C/c1cccc(Br)n1)c1ccc(OCCOCCOCCOCCOCCOCCOCCNC(=O)c2ccc(-c3ccc4c(c3)[C@H](Nc3ccc(Cl)cc3)C[C@H](C)N4C(C)=O)cc2)cc1 (stereo partly drawn) [Example 05IB6]", "units label": "%", "Dmax": 97}
{"compound": "CCCC(NC(=O)/C(C#N)=C/c1cccc(Br)n1)c1ccc(OCC=NOCC(=O)NCCOCCNC(=O)c2ccc3c(c2)[C@H](Nc2ccc(Cl)cc2)C[C@H](C)N3C(C)=O)cc1 (stereo partly drawn) [Example 05IB1]", "units label": "%", "Dmax": 100}
{"compound": "CCCC(NC(=O)/C(C#N)=C/c1nc(Cl)ccc1Cl)c1ccc(OCCOCCOCCOCCOCCOCCOCCNC(=O)c2ccc(-c3ccc4c(c3)[C@H](Nc3ccc(Cl)cc3)C[C@H](C)N4C(C)=O)cc2)cc1 (stereo partly drawn) [Example 05IB10]", "units label": "%", "Dmax": 99}
{"compound": "CCCC(NC(=O)/C(C#N)=C/c1nccs1)c1ccc(OCCOCCOCCOCCOCCOCCOCCNC(=O)c2ccc(-c3ccc4c(c3)[C@H](Nc3ccc(Cl)cc3)C[C@H](C)N4C(C)=O)cc2)cc1 (stereo partly drawn) [Example 05IB9]", "units label": "%", "Dmax": 96}
{"compound": "CCCC(NC(=O)/C(C#N)=C/c1cccc(Br)n1)c1ccc(OCC=NOCC(=O)NCCOCCOCCOCCOCCOCCNC(=O)c2ccc3c(c2)[C@H](Nc2ccc(Cl)cc2)C[C@H](C)N3C(C)=O)cc1 (stereo partly drawn) [Example 05IB3]", "units label": "%", "Dmax": 100}
{"compound": "CCCC(NC(=O)/C(C#N)=C/c1cccc(Br)n1)c1ccc(OCC=NOCC(=O)NCCOCCOCCOCCNC(=O)c2ccc3c(c2)[C@H](Nc2ccc(Cl)cc2)C[C@H](C)N3C(C)=O)cc1 (stereo partly drawn) [Example 05IB2]", "units label": "%", "Dmax": 100}

* * *

molecular target: Brd4 (L) (Homo sapiens, UniProt O60885); construct: endogenous in cells; host or cells: HEK293, HeLa; assay: Concentration-dependent BET degradation, immunoblot, HEK293 cells; assay type: cell-based; details: 6 h treatment, 1 nM-10 μM, read-out: Dmax (%) maximum degradation observed
experimental readout: Dmax

{"molecule": "CCCC(NC(=O)/C(C#N)=C/c1cccc(Br)n1)c1ccc(OCC=NOCC(=O)NCCOCCOCCOCCNC(=O)c2ccc3c(c2)[C@H](Nc2ccc(Cl)cc2)C[C@H](C)N3C(C)=O)cc1 (some centres unmarked) [Example 05IB2]", "data value": "≥ 71%"}
{"molecule": "CCCC(NC(=O)/C(C#N)=C/c1cccc(Br)n1)c1ccc(OCCOCCOCCOCCOCCOCCOCCNC(=O)c2ccc(-c3ccc4c(c3)[C@H](Nc3ccc(Cl)cc3)C[C@H](C)N4C(C)=O)cc2)cc1 (some centres unmarked) [Example 05IB6]", "data value": "≥ 71%"}
{"molecule": "CCCC(NC(=O)/C(C#N)=C/c1nccs1)c1ccc(OCCOCCOCCOCCOCCOCCOCCNC(=O)c2ccc(-c3ccc4c(c3)[C@H](Nc3ccc(Cl)cc3)C[C@H](C)N4C(C)=O)cc2)cc1 (some centres unmarked) [Example 05IB9]", "data value": "≥ 71%"}
{"molecule": "CCCC(NC(=O)/C(C#N)=C/c1nc(Cl)ccc1Cl)c1ccc(OCCOCCOCCOCCOCCOCCOCCNC(=O)c2ccc(-c3ccc4c(c3)[C@H](Nc3ccc(Cl)cc3)C[C@H](C)N4C(C)=O)cc2)cc1 (some centres unmarked) [Example 05IB10]", "data value": "≥ 71%"}
{"molecule": "CCCC(NC(=O)C(C#N)Cc1cccc(Br)n1)c1ccc(OCCOCCOCCOCCOCCOCCOCCNC(=O)c2ccc(-c3ccc4c(c3)[C@H](Nc3ccc(Cl)cc3)C[C@H](C)N4C(C)=O)cc2)cc1 (some centres unmarked) [Example 05IB12]", "data value": "≤ 25%"}
